Target: recombinant human PDGF-BB (human, UniProt P01127 82-190)
Sequence (P01127 82-190 limits assumed): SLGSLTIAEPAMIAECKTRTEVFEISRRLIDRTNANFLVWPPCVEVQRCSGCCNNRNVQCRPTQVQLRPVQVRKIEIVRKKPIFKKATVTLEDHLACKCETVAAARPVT
Experiment: cell-based or functional assay
measured-attribute: Phospho-Tyr751/hPDGF-BB Neutralization (nM)
One number for each entry, in nM.

Please report the recorded Phospho-Tyr751/hPDGF-BB Neutralization for BDI-9E8-E7 (antibody, IgG2b, V domains shown, Rat hybridoma monoclonal antibody) VH: QVTLKESGPGILQPSQTLSLTCTFSGFSLSTYGMGVGWIRQPSGKGLEWLANIWWDDDKYYNPSLKNRLTISKDTSNNQAFLKITNVDTADTATYYCARIESIGTTYSFDYWGQGVMVTVSS VL: QFTLTQPKSVSGSLRSTITIPCERSSGDIGDSYVSWYQQHLGRPPINVIYADDQRPSEVSDRFSGSIDSSSNSASLTITNLQMDDEADYFCQSYDINIDIVFGGGTKLTVL . 0.629

Please report the recorded Phospho-Tyr751/hPDGF-BB Neutralization for BDI-1E1-D5 (antibody, IgG2b, V domains shown, Rat hybridoma monoclonal antibody) VH: EVKLQQSGDELVRPGASVKMSCKASGYTFTDYVMHWVKQSPGQGLEWIGTIIPLIDTTSYNQKFKGKATLTADKSSNTAYMELSRLTSEDSAVYYCARTSPYYYSSYDVMDAWGQGASVTVSS VL: NIQLTQSPSLLSASVGDRVTLSCKGSQNINNYLAWYQQKLGEAPKLLIYKTNNLQTGIPSRFSGCGSGTDYTLTISSLHSEDLATYYCYQYDNGYTFGAGTKLELK . 1.06

Please report the recorded Phospho-Tyr751/hPDGF-BB Neutralization for BDI-6A3-A9 (antibody, IgG2b, V domains shown, Rat hybridoma monoclonal antibody) VH: EVQLVESGGGLVQPGRSLKFSCAASGFSFSDSAMAWVRQAPKKGLEWVATIIYDGSGTYYRDSVKGRFTISRDNAKSTLYLQMDSLRSEDTATYYCARLGFNYGNYGYYVMDAWGQGASVTVSS VL: QFTLTQPKSVSGSLRNTITIPCERSSGDIGDSYVSWYQQHLGRPPINVIFADDQRPSEVSDRFSGSIDSSSNSASLTITNLQMDDEADYFCQSYDSNIDINIVFGGGTKLTVL . 1.62

Further cases:
Please report the recorded Phospho-Tyr751/hPDGF-BB Neutralization for BDI-5G2-F9 (antibody, IgG2b, V domains shown, Rat hybridoma monoclonal antibody) VH: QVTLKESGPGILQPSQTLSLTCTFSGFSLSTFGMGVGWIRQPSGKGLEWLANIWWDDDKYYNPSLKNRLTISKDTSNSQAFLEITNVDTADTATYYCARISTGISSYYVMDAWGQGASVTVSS VL: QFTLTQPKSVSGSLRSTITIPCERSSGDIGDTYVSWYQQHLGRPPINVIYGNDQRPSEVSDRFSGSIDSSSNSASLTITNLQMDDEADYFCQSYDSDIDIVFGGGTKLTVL . 0.923
